# Test system: HepG2
# Assay details: Cytotoxicity against human HepG2 cells after 24 to 48 hrs by MTT assay
# Assay type: functional
# Condition: read-out: LD50 (the source's name)

Query smiles: O=C(N/N=C/c1cc(Cl)cc(Cl)c1O)c1cccc(Br)c1Br
Unit annotation: µg/mL
CC50: 16

Query smiles: O=C(N/N=C/c1cc(Br)cc(Br)c1O)c1ccc(C(F)(F)F)cc1
Unit annotation: µg/mL
CC50: 8

Query smiles: O=C(N/N=C/c1c(O)ccc2ccccc12)c1cc(Br)ccc1Br
Unit annotation: µg/mL
CC50: 16

Query smiles: O=C(N/N=C/c1cc(OC(F)(F)F)ccc1O)c1ccc(Br)cc1
Unit annotation: µg/mL
CC50: 64

Query smiles: O=C(N/N=C/c1cc(Cl)ccc1O)c1cc(Br)cc(Br)c1
Unit annotation: µg/mL
CC50: 16

Query smiles: CN(C)c1ccc(C(=O)N/N=C/c2ccc(Br)cc2O)cc1
Unit annotation: µg/mL
CC50: 16
